Listing of recorded pIC50 by entry.
# target_of_assay: menin/MLL (terbium chelate-labeled menin, FITC-MBM1 peptide) (Homo sapiens, UniProt O00255, T541A)
# Construct: Menin (a.a 1-610-6xhis tag)
# experiment_summary: Menin/MLL homogenous time-resolved fluorescence (HTRF) assay
# Type: binding
# settings: 30 min incubation
Just so you know, pIC50 here is -log10 of the concentration in molar units; reply with that number alone.

Known pIC50 results, listed for orientation:
CC(C)C([C@H]1C[C@@H](N(C)C)C1)N1CC2(CCN(c3ncnnc3Oc3ccc(F)cc3-c3cncnc3C3CC3)C2)C1 (stereo partly shown) [Compound 136] | 10.00
CC(=O)N1CC2CN([C@H]3C[C@H]([C@H](C(C)C)N4CC5(CCN(c6ncnnc6Oc6ccc(F)cc6-c6cnc(C)nc6C6CC6)C5)C4)C3)CC2C1 (stereo partly shown) [Compound 376] | 9.21
CC(=O)N1CCN([C@H]2C[C@@H]([C@H](C(C)C)N3CC4(CCN(c5ncnnc5Oc5ccc(F)cc5-c5ncc(C#N)cc5C5CC5)C4)C3)C2)CC1 (single isomer, unassigned) [Compound 96] | 6.82

Query: Recorded pIC50 for CC(=O)N[C@H]1C[C@@H]([C@@H](C(C)C)N2CC3(CCN(c4ncnnc4Oc4ccc(F)cc4-c4cncnc4C4CC4)C3)C2)C1 (single isomer, unassigned) [Compound 2a] , please?
Result: 9.70

Query: Could you share which pIC50 value was measured for CC(C)[C@H]([C@H]1C[C@@H](N2CCC(S(=O)(=O)C(C)C)CC2)C1)N1CC2(CCN(c3ncnnc3Oc3ccc(F)cc3-c3cncnc3C3CC3)C2)C1 (single isomer, unassigned) [Compound 209] ?
Result: 9.52

Query: // pIC50 lookup, key: CNC(=O)c1ccnc(N[C@H]2C[C@@H]([C@@H](C(C)C)N3CC4(CCN(c5ncnnc5Oc5ccc(F)cc5-c5cncnc5C5CC5)C4)C3)C2)n1 (single isomer, unassigned) [Compound 452]
Result: 9.96

Query: Which measured pIC50 value corresponds to CC(C)[C@H]([C@H]1C[C@@H](N2CCC3(CC2)COC3)C1)N1CC2(CCN(c3ncnnc3Oc3ccc(F)cc3-c3cncnc3C3CC3)C2)C1 (single isomer, unassigned) [Compound 231] ?
Result: 10.00

Query: # pIC50 lookup, item C[C@@H]([C@H]1C[C@@H](NC(=O)C2(F)CC2)C1)N1CC2(CCN(c3ncnnc3Oc3ccc(F)cc3-c3cncnc3C3CC3)C2)C1 (single isomer, unassigned) [Compound 456]
Result: 9.28

Query: Need pIC50, item CC(=O)N[C@H]1C[C@@H]([C@@H](C(C)C)N2CC3(CCN(c4ncnnc4Oc4ccc(F)cc4-c4nncnc4C4CC4)C3)C2)C1 (single isomer, unassigned) [Compound 306]
Result: 9.52

Query: Field request: pIC50 | item: Cc1nnc(C2CC2)n1-c1cc(F)ccc1Oc1nncnc1N1CCC2(C1)CN([C@H](C(C)C)C1CC(N(C)C)C1)C2 (mixture of isomers) [Compound 502]
Result: 9.92

* * *

# target_of_assay: menin/MLL (terbium chelate-labeled menin, FITC-MBM1 peptide) (Homo sapiens, UniProt O00255, T541A)
# Construct: Menin (a.a 1-610-6xhis tag)
# Sequence (O00255 with tags, fused parts or gaps T541A): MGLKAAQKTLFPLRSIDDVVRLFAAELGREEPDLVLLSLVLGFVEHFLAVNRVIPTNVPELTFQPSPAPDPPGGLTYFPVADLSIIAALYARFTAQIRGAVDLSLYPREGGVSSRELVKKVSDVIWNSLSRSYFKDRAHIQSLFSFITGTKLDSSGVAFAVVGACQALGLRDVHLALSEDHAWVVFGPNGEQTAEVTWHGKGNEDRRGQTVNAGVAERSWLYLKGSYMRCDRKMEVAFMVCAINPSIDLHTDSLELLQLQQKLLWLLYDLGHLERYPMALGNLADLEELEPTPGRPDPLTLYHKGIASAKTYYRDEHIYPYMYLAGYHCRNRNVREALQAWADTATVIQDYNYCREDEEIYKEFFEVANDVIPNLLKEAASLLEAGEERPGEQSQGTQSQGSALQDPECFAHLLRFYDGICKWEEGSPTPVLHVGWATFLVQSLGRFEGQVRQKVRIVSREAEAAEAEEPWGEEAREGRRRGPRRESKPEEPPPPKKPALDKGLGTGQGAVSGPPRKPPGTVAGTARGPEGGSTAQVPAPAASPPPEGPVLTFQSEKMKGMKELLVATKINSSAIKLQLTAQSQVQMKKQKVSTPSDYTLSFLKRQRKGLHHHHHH
# experiment_summary: Menin/MLL homogenous time-resolved fluorescence (HTRF) assay
# settings: 30 min incubation
The following molecules are shown together with reported pIC50 values.
Remember the convention: pIC50 equals -log10 of concentration in molar.

Below, each entry is followed by its recorded pIC50 result.
CNC(=O)c1csc(N[C@H]2C[C@@H]([C@@H](C(C)C)N3CC4(CCN(c5ncnnc5Oc5ccc(F)cc5-c5cncnc5C5CC5)C4)C3)C2)n1 (single isomer, unassigned) | 10.30
CC(C)[C@H]([C@H]1C[C@@H](N2CCC3(CCO3)C2)C1)N1CC2(CCN(c3ncnnc3Oc3ccc(F)cc3-c3nnccc3C3CC3)C2)C1 (single isomer, unassigned) | 8.25
CC(C)[C@H]([C@H]1C[C@@H](N2C[C@@H](O)C3(CC3)C2)C1)N1CC2(CCN(c3ncnnc3Oc3ccc(F)cc3-c3cncnc3C3CC3)C2)C1 (single isomer, unassigned) | 10.00

Query: Record request: pIC50 value, item CC(C)[C@@H]([C@H]1C[C@@H](NC(=O)C2CC2)C1)N1CC2(CCN(c3ncnnc3Oc3ccc(F)cc3-c3n[nH]c(=O)cc3C3CC3)C2)C1 (single isomer, unassigned)
Result: 7.62

Query: Item CC(C)[C@H](C1CN(CC2COC2)C1)N1CC2(CCN(c3ncnnc3Oc3ccc(F)cc3-c3cncnc3C3CC3)C2)C1 (single isomer, unassigned) has what recorded pIC50?
Result: 8.13

Reference for the values: patent US20240417405A1
